- Tested on: MRSA
property: MIC (µg/mL)

Solved cases (2 shown):
CC(C)CCNCCCNCCCNCc1cccc(-c2cc(-c3cccc(CNCCCNCCCNCCC(C)C)c3)cc(C(C)(C)C)c2)c1 [CZ-1-182] ... 0.25
CCC(C)CNCCCNCCCNCc1ccc(-c2cccc(-c3ccc(CNCCCNCCCNCC(C)CC)cc3)c2)cc1 (stereo not drawn) [CZ-1-166] ... 1

1. CC(C)CNCCCNCCCNCc1ccc(-c2cccc(-c3ccc(CNCCCNCCCNCC(C)C)cc3)c2)cc1 [CZ-1-157]
2. CCC(CC)CNCCCNCCCNCc1ccc(-c2cccc(-c3ccc(CNCCCNCCCNCC(CC)CC)cc3)c2)cc1 [CZ-1-164]
3. CC(C)CNCCCNCCCNCc1cccc(-c2ccccc2-c2cccc(CNCCCNCCCNCC(C)C)c2)c1 [CZ-1-152]
Data request: Ranking field: MIC; order: falling. Write the labels out in the order the request specifies.
Data returned: 3, 1, 2
(3: 16 µg/mL, 1: 4 µg/mL, 2: 1 µg/mL)

a. CCC(CC)CNCCCNCCCNCc1cccc(-c2cc(-c3cccc(CNCCCNCCCNCC(CC)CC)c3)cc(C(C)(C)C)c2)c1 [CZ-1-183]
b. CC(C)CNCCCNCCCNCc1ccc(-c2cc(-c3ccc(CNCCCNCCCNCC(C)C)cc3)ncn2)cc1 [CZ-1-176]
Data request: Consider a and b . Which of these has its MIC at a higher number? Let me know the label of the one you choose.
Data returned: b
(b: 32 µg/mL, a: 0.5 µg/mL)

---

Dear all, this message contains MIC results, target or system MRSA.
property: MIC (µg/mL)

Consider the following illustrative entries.
CC(C)CNCCCNCCCNCc1ccc(-c2cc(-c3ccc(CNCCCNCCCNCC(C)C)cc3)cc(C(C)(C)C)c2)cc1 ... 1
CC(C)CNCCCNCCCNCc1cccc(-c2cc(-c3cccc(CNCCCNCCCNCC(C)C)c3)cc(C(C)(C)C)c2)c1 ... 0.5

a. CCCCCCNCCCNCCCNCc1cccc(-c2ccccc2-c2cccc(CNCCCNCCCNCCCCCC)c2)c1
b. CC(C)CCNCCCNCCCNCc1ccc(-c2ccnc(-c3ccc(CNCCCNCCCNCCC(C)C)cc3)n2)cc1
c. CCC(C)CNCCCNCCCNCc1ccc(-c2cc(-c3ccc(CNCCCNCCCNCC(C)CC)cc3)cc(C(C)(C)C)c2)cc1 (stereo not shown)
d. CCC(CC)CNCCCNCCCNCc1ccc(-c2cc(-c3ccc(CNCCCNCCCNCC(CC)CC)cc3)cc(C(C)(C)C)c2)cc1
Data request: Which order do these items take when sorted by rising MIC? List them. Answer by naming the labels in the order asked.
Data returned: d, c, b, a
(d: 0.5 µg/mL, c: 1 µg/mL, b: 8 µg/mL, a: 16 µg/mL)

---

- Test system: A. baumannii
- test.protocol: MIC analysis
- Assay type: cell-based
- setup.conditions: Acinetobacter baumannii, 24 hours
property: MIC (µg/mL)

Study these solved cases before continuing.
CCC(CC)CNCCCNCCCNCc1ccc(-c2cc(-c3ccc(CNCCCNCCCNCC(CC)CC)cc3)cc(C(C)(C)C)c2)cc1 ... 2
CCCCC(CC)CNCCCNCCCNCc1ccc(-c2cccc(-c3ccc(CNCCCNCCCNCC(CC)CCCC)cc3)c2)cc1 (stereo not shown) ... 4

I. CCC(C)CNCCCNCCCNCc1ccc(-c2cc(-c3ccc(CNCCCNCCCNCC(C)CC)cc3)cc(C(C)(C)C)c2)cc1 (stereo not shown)
II. CC(C)CNCCCNCCCNCc1ccc(-c2cc(-c3ccc(CNCCCNCCCNCC(C)C)cc3)cc(C(C)(C)C)c2)cc1
III. CC(C)CCNCCCNCCCNCc1cccc(-c2cc(-c3cccc(CNCCCNCCCNCCC(C)C)c3)cc(C(C)(C)C)c2)c1
IV. CCC(CC)CNCCCNCCCNCc1cccc(-c2cc(-c3cccc(CNCCCNCCCNCC(CC)CC)c3)cc(C(C)(C)C)c2)c1
V. CC(C)CNCCCNCCCNCc1cccc(-c2cc(-c3cccc(CNCCCNCCCNCC(C)C)c3)cc(C(C)(C)C)c2)c1
Data request: # rank by MIC, ascending (min first) Output the labels ranked as instructed.
Data returned: I, II, IV, III, V

// data source = patent US11352315B2
